Data provenance is patent US7595300B2.

assay: in vivo; conditions: male, beagle, dog, iv, 11 mg/kg
valueType: Tmax

Consider the compound shown here: CC1CC(N(C)C)C(O)C(O[C@@H]2[C@@H](C)C(=O)[C@](C)(F)C(=O)O[C@H](CCF)[C@@]3(C)OC(=O)N[C@@H]3[C@@H](C)C(=O)[C@H](C)C[C@@]2(C)OC/C=C/c2ccc3cccnc3c2)O1 (stereo partly shown) What is its recorded Tmax?
27.6 min

###

Test: Pharmacokinetics in the mouse, plasma and lung tissue
Format: in vivo
Conditions: mouse plasma, oral gavage 10 mg/kg
Protocol: The pharmacokinetics of compounds of formula (VIII) and compounds of formula (II) and (III) were measured in the mouse. Compounds were administered either intravenously (i.v.) at 1 mg/kg, or per oral gavage (p.o.) at 10 mg/kg. Plasma samples were taken and analyzed by LC/MS-MS. For lung tissue pharmacokinetics, lungs were removed and homogenized, followed by analyzis by LC/MS-MS.
valueType: Plasma AUC (ug/mL-h)
Express your answer in ug/mL-h, writing the number without its unit.

CC1CC(N(C)C)C(O)C(O[C@@H]2[C@@H](C)C(=O)[C@@H](C)C(=O)O[C@H](CCF)[C@@]3(C)OC(=O)N[C@@H]3[C@@H](C)C(=O)[C@H](C)C[C@@]2(C)OC/C=C/c2ccc3nccnc3c2)O1 (stereo partly shown) [G] = 0.54
CC1CC(N(C)C)C(O)C(O[C@@H]2[C@@H](C)C(=O)[C@](C)(F)C(=O)O[C@H](CCF)[C@@]3(C)OC(=O)N[C@@H]3[C@@H](C)C(=O)[C@H](C)C[C@@]2(C)OC/C=C/c2cnc3ccccc3c2)O1 (stereo partly shown) [B] = 3.9
CC1CC(N(C)C)C(O)C(O[C@@H]2[C@@H](C)C(=O)[C@](C)(F)C(=O)O[C@H](CCF)[C@@]3(C)OC(=O)N[C@@H]3[C@@H](C)C(=O)[C@H](C)C[C@@]2(C)OC/C=C/c2ccc3nccnc3c2)O1 (stereo partly shown) [H] = 2.1

Here is the next item to consider.
Consider the molecule shown here: CC1CC(N(C)C)C(O)C(O[C@@H]2[C@@H](C)C(=O)[C@@H](C)C(=O)O[C@H](CCF)[C@@]3(C)OC(=O)N[C@@H]3[C@@H](C)C(=O)[C@H](C)C[C@@]2(C)OC/C=C/c2cnc3ccccc3c2)O1 (stereo partly shown) [A] What is its recorded Plasma AUC?
0.7
